system: UO-31; assay: NCI tumour cell line growth inhibition, 48 h
Activity calls are given as the source filed them. No stated cut-off is given here; in the data, active = GI50 up to about 1.1 µM and inactive = higher.
Catalogue of GI50 values

// below: answered compounds
[ask] So what does the record say about GI50 for CCOC(=O)c1cc2c3c(c(O)c(OC)c2s1)N(C(=O)c1cc2c4c(c(O)c(OC)c2s1)N(C(C)=O)CC4)CC3 ?
[reply] 64.4 µM (inactive)

[ask] So what does the record say about GI50 for O=C(O/N=C1/CCC/C1=C\c1ccccc1)c1ccc(Cl)cc1 ?
[reply] 58.9 µM (inactive)

[ask] So what does the record say about GI50 for Cc1ccc(S(=O)(=O)n2cc(-c3cnc(N)c(Br)n3)c3ccccc32)cc1 ?
[reply] 4.18 µM (inactive)

[ask] So what does the record say about GI50 for CC(=O)Nc1ccc2cc(C)c(O)nc2n1 ?
[reply] > 100 µM (inactive)

[ask] So what does the record say about GI50 for CCCCCCCCCCCC(=O)N(CCCCCCCCCCC(=O)O)CC(O)C(O)C(OC1OC(CO)C(O)C(O)C1O)C(O)CO (stereo unspecified) ?
[reply] > 100 µM (inactive)

Further cases:
[ask] So what does the record say about GI50 for O=C1/C(=C/c2ccc(Cl)cc2)CCC1CCN1CCOCC1 (stereo unspecified) ?
[reply] 68.7 µM (inactive)

[ask] So what does the record say about GI50 for Cc1c2cnccc2c(C)c2c1c1ccccc1n2CCCCCCCl ?
[reply] > 47.5 µM (inactive)

[ask] So what does the record say about GI50 for Cc1cccc(C(C)(C)C)c1NC(=O)CC1C(=O)Nc2ccccc2[S+]1[O-] (stereo unspecified) ?
[reply] 41.6 µM (inactive)

[ask] So what does the record say about GI50 for O=C(O)C1CC(C2CCCCN2)CN2CCCCC12 (stereo unspecified) ?
[reply] > 100 µM (inactive)

[ask] So what does the record say about GI50 for O=C(CC1Sc2ccccc2NC1=O)Nc1cccc(Cl)c1 (stereo unspecified) ?
[reply] 28.8 µM (inactive)

[ask] So what does the record say about GI50 for C=Cc1ccccc1C1(O)C=CC(OC)(OC)C=C1 ?
[reply] 7.24 µM (inactive)

====

test system: SF-539; test: NCI tumour cell line growth inhibition, 48 h
Calls of active or inactive are those of the source. Cut-off read from the data, not from the text of the source: active = GI50 up to about 1.1 µM and inactive = higher.
Your answer must be one of the following: True (active), False (inactive)

Solved entries (count: 5):
[ask] Assay result, entry COC(=O)CCC(=O)Nc1cccc(C(F)(F)F)c1 — outcome?
[reply] False

[ask] Assay result, entry CCOC(=O)c1c(C)n(-c2ccc(C)cc2)c2c1cc(O)c1[nH]c3c(c12)CCCC3 — outcome?
[reply] False

[ask] Assay result, entry CCOC(=O)C1=C(C)N(Cc2ccc(Cl)cc2Cl)C2(O)C=CC(=O)C3C(=O)N(c4ccccc4)C(=O)C132 (configuration not stated) — outcome?
[reply] False

[ask] Assay result, entry OCCSCC(O)Cn1cnc2c(O)nc(Nc3ccccc3)nc21 (configuration not stated) — outcome?
[reply] False

[ask] Assay result, entry COC(=O)C1CCC(=O)N1CN(C(C)=O)c1ccccc1Cl (configuration not stated) — outcome?
[reply] False

Further cases:
[ask] Assay result, entry O=c1[nH]c(N/N=C\C(=N/Nc2nc3ccccc3c(=O)[nH]2)C(O)C(O)C(O)CO)nc2ccccc12 (configuration not stated) — outcome?
[reply] False

[ask] Assay result, entry COc1cc(OC)nc(NC(=O)NS(=O)(=O)c2cccc3ncn(C)c(=O)c23)n1 — outcome?
[reply] False

[ask] Assay result, entry COC(=O)c1c(C(=O)OC)c(-c2ccccc2)n(-c2ccccc2)c(=O)c1-c1ccccc1 — outcome?
[reply] False

[ask] Assay result, entry COc1cccc(NC(=O)CC(=O)NNCC(=O)Nc2nnc(-c3ccc(N(CCC#N)S(=O)(=O)c4ccccc4)cc3)s2)c1 — outcome?
[reply] False

[ask] Assay result, entry COc1ccc(CN(CCN(C)C)c2ccccn2)cc1.Cn1c(=O)c2[nH]c(Br)nc2n(C)c1=O — outcome?
[reply] False

[ask] Assay result, entry C=C1c2c(n(S(=O)(=O)c3ccccc3)c3ccccc23)[C@@]2(C(=O)OC)CC3C=CC2N1C3 — outcome?
[reply] False

[ask] Assay result, entry CCCCCCCCCCCCCCCC(=O)OCC1OC(N2C(=O)/C(=N\NC(N)=S)c3ccc([N+](=O)[O-])cc32)C(OC(C)=O)C1OC(C)=O (configuration not stated) — outcome?
[reply] False

[ask] Assay result, entry Cc1ccc(S(=O)(=O)N2CCN(C=S)CC2)cc1 — outcome?
[reply] False

[ask] Assay result, entry CC(C)(C)OC(=O)CN1C(=O)CC1CC(=O)c1ccccc1 (configuration not stated) — outcome?
[reply] False

[ask] Assay result, entry O=C1Nc2ccccc2/C1=N/NC(=S)Nc1cccc(Cl)c1 — outcome?
[reply] False

[ask] Assay result, entry COC12C=C(C)C(CC1)CC2C(=O)O (configuration not stated) — outcome?
[reply] False

[ask] Assay result, entry CCCCCCCCCCCC1NC(N)=NC(CCCO)=C1C(=O)OC (configuration not stated) — outcome?
[reply] False

====

system: OVCAR-5; experiment: NCI tumour cell line growth inhibition, 48 h
Activity calls are given as the source filed them. Rule as the data show it: active = GI50 up to about 1.1 µM and inactive = higher.
Your answer must be one of the following: t for active, f for inactive

Solved entries (count: 5):
[ask] Assay result, entry CCOC(=O)N(CC)c1c(C(F)(F)F)cc(-c2ccccc2)[nH]c1=O — outcome?
[reply] f

[ask] Assay result, entry O=c1[nH]c(=O)n(C2OC(CO)C(O)C2O)cc1OCCc1ccccc1 (stereo not drawn) — outcome?
[reply] f

[ask] Assay result, entry CC(C)C1OC(=O)/C=C/C=C/C=C/C=C/C=C/CC(O)CC(O)CC(O)CC(O)CC(O)CC(O)CC(O)CC(O)/C=C/C1C (stereo not drawn) — outcome?
[reply] f

[ask] Assay result, entry Nc1nc(Br)nc2ncn(C3CC(O)C(CO)O3)c12 (stereo not drawn) — outcome?
[reply] f

[ask] Assay result, entry CCCCC(C(=O)C(=O)Nc1ccccc1CC)C(=O)C(C)C (stereo not drawn) — outcome?
[reply] f

Further cases:
[ask] Assay result, entry CN(C)c1ccc(/C=C2\C[C@H]3[C@@H]4CCc5cc(O)ccc5[C@H]4CC[C@]3(C)C2=O)cc1 — outcome?
[reply] f

[ask] Assay result, entry O=C1Nc2ccccc2/C1=N/NC(=S)Nc1cccc(Cl)c1 — outcome?
[reply] f

[ask] Assay result, entry C=CC(Cl)(CBr)CCC(Br)=C(C)C (stereo not drawn) — outcome?
[reply] f

[ask] Assay result, entry COc1ccc(C(O)C(c2ccc(OCc3ccccc3)cc2)c2ccc(OCc3ccccc3)cc2)cc1 (stereo not drawn) — outcome?
[reply] f

[ask] Assay result, entry CC(=O)c1ccc(Nc2c3ccccc3nc3occc23)cc1 — outcome?
[reply] t

[ask] Assay result, entry NC(=O)C(C(N)=O)=C(O)/C(O)=C/C(=O)c1ccccc1 — outcome?
[reply] f

[ask] Assay result, entry C=C(Cl)/C(=C\Cl)CCC(Br)C(C)C (stereo not drawn) — outcome?
[reply] f

====

tested on: HOP-62; test: NCI tumour cell line growth inhibition, 48 h
Calls of active or inactive are those of the source. Rule as the data show it: active = GI50 up to about 1.1 µM and inactive = higher.
Your answer must be one of the following: True (active), False (inactive)

[ask] Assay result, entry CCOC(=O)c1c(CN2CCOCC2)n(Cc2ccccc2)c2c1cc(O)c1nc(C)c(C)nc12 — outcome?
[reply] False

[ask] Assay result, entry N#Cc1c(-c2ccc(F)cc2)c(-c2ccc(F)cc2)nn(CCO)c1=O — outcome?
[reply] True

[ask] Assay result, entry N#Cc1nc(-c2cnccn2)oc1N — outcome?
[reply] False

[ask] Assay result, entry CCn1c2ccccc2c2cc(NC(=O)c3c(C)[nH]c(=O)[nH]c3=S)ccc21 — outcome?
[reply] False

====

test system: A549; test: NCI tumour cell line growth inhibition, 48 h
Activity calls are given as the source filed them. Cut-off read from the data, not from the text of the source: active = GI50 up to about 1.1 µM and inactive = higher.
Catalogue of GI50 values

// below: answered compounds
[ask] Provide the documented GI50 with A549 as the system for O=C1Nc2ccc(Br)cc2/C1=N/S(=O)(=O)O
[reply] 26.1 µM (inactive)

[ask] Provide the documented GI50 with A549 as the system for N#C/N=C1/c2ccccc2/C(=N/C#N)c2cc(CO)ccc21
[reply] 20.9 µM (inactive)

[ask] Provide the documented GI50 with A549 as the system for COc1cc(OC)nc(NC(=O)NS(=O)(=O)c2cccc3ncn(C)c(=O)c23)n1
[reply] > 100 µM (inactive)

Further cases:
[ask] Provide the documented GI50 with A549 as the system for CCOC(=O)Nc1nn(C)/c(=N/Cc2ccccc2)s1
[reply] > 100 µM (inactive)

[ask] Provide the documented GI50 with A549 as the system for OCc1cn(Cc2ccccc2)c2ccccc12
[reply] 9.02 µM (inactive)

[ask] Provide the documented GI50 with A549 as the system for Sc1nnc(COc2ccc(Cl)cc2)n1-c1ccccc1
[reply] > 100 µM (inactive)

[ask] Provide the documented GI50 with A549 as the system for Cc1cc(=O)cc2sc3c(C)cccc3nc1-2
[reply] 63.5 µM (inactive)

[ask] Provide the documented GI50 with A549 as the system for O=C(CC1(O)C(=O)Nc2ccccc21)c1ccc(O)cc1 (stereo unspecified)
[reply] > 100 µM (inactive)
